Each recorded value in this set is attributed to the supplement of paper PMC7695840.

Tested on: Staphylococcus aureus MW2 (mecA+)
Assay summary: IC50 (growth, competition assay)
Experimental conditions: fluorescent label: DsRed; cefoxitin: subinhibitory
Assay endpoint: IC50 (µM)
Report the figure in µM without appending any unit label.

Query: Requested read-out: IC50. Entry: `COC(=O)C1=C(C)NC(C)=C(C(=O)OC)C1c1cccc(NC(=O)NCCCN2CCC(c3cccc(OC)c3)CC2)c1`
Response: 45.5

Query: Same again, this time with CC[C@H]1OC(=O)C[C@@H](O)[C@H](C)[C@@H](O[C@@H]2O[C@H](C)[C@@H](O)[C@H](N(C)C)[C@H]2O)[C@@H](CCN2C[C@H](C)C[C@H](C)C2)C[C@@H](C)C(=O)/C=C/C(C)=C/[C@@H]1CO[C@@H]1O[C@H](C)[C@@H](O)[C@@H](OC)[C@H]1OC [MICOTIL]
Response: 18.8

Query: Same again, this time with CCCCCCCCCCCCCCCCC(C(=O)O)C(O)(CC(=O)O)C(=O)O (configuration not stated) [AGARIC ACID]
Response: 12.8

Query: Same again, this time with Cn1nnnc1SCC1=C(C(=O)O)N2C(=O)[C@@H](NC(=O)[C@H](OC=O)c3ccccc3)[C@H]2SC1 [MANDOL]
Response: 21.3

Query: Same again, this time with `CCN(CC)CCOc1ccc(Nc2ncc3cc(-c4c(Cl)cccc4Cl)c(=O)n(C)c3n2)cc1`
Response: 85.1
